- Assayed System: recombinant human Bcl-2 (Homo sapiens)
- Sequence (P10415 92-205 limits assumed): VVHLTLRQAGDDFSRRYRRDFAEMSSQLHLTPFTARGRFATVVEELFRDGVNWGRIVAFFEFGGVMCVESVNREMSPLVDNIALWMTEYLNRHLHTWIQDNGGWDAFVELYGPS
- Experimental Protocol: Fluorescence polarization binding assay for Bcl-2 (Bid-FAM peptide displacement)
- Condition Label: FP-based binding assay; Ki calculated from IC50 with modified Cheng-Prusoff equation; read-out: Ki
Assay Metric: pKi
Reminder that pKi is minus the log10 of a molar concentration.

CC1=C(C2=C(C)C(=O)c3c(c(C(=O)O)c(O)c(O)c3C(C)C)C2=O)C(=O)c2c(C(=O)O)c(O)c(O)c(C(C)C)c2C1=O ... 6.55

# next molecule below
query: Complete the entry with pKi for "Cc1cc2c(C(C)C)c(O)c(O)c(C(=O)O)c2c(O)c1-c1c(C)cc2c(C(C)C)c(O)c(O)c(C(=O)O)c2c1O"
result: 6.92

Sourced from patent US20060178435A1
